Provide the recorded Emax (%) for the entries that follow.
biological target: mAChR M1 (UniProt P11229); experiment: mAChR M1 cell-based functional assay (calcium mobilization, potentiation of EC20 acetylcholine response); details: % ACh maximum at 30 μM; mAChR M1-expressing CHO-K1 cells, calcium flux
Entry rule: numbers only, all in %.

*Q* Quick check: Emax (%) of O=C1c2cccnc2CN1Cc1ccc(-c2ccc3cncn3c2)cc1F ?
*A* 62

*Q* Quick check: Emax (%) of CC(c1ccc(-c2cnn(C)c2)cc1F)N1Cc2ccccc2C1=O (centres unmarked) ?
*A* 35

*Q* Quick check: Emax (%) of O=C1c2cccnc2CN1Cc1c(F)cc(-c2ccc3cncn3c2)cc1F ?
*A* 71

*Q* Quick check: Emax (%) of O=C1c2cccnc2CN1Cc1ccc(-c2ccc3cc[nH]c3c2)cc1F ?
*A* 34

*Q* Quick check: Emax (%) of Cc1n[nH]c2ccc(-c3cc(F)c(CN4Cc5ncccc5C4=O)c(F)c3)cc12 ?
*A* 68

----------
Biological target: mAChR M1 (UniProt P11229)
Sequence (P11229 1-460): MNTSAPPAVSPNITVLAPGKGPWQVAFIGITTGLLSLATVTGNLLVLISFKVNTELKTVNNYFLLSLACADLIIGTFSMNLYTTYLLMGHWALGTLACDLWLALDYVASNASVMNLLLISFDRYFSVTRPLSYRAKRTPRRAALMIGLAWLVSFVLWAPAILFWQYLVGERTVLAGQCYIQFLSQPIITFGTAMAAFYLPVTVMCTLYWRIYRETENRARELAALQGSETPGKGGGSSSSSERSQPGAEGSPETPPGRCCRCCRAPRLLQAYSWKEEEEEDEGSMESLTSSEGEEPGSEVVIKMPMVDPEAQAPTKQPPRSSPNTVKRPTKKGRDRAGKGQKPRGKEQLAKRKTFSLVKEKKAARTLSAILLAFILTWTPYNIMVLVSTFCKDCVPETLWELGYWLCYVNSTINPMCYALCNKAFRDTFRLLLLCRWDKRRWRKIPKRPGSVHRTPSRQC
Experiment: mAChR M1 cell-based functional assay (calcium mobilization, potentiation of EC20 acetylcholine response)
Settings: positive allosteric modulation of EC20 ACh response, mAChR M1 CHO-K1 cells; >10 μM estimated where no plateau; read-out: EC50
Provide the recorded pEC50 for the entries that follow.
In plain terms, pEC50 is the concentration in mol/L turned into minus its base-10 logarithm.

*Q* Quick check: pEC50 of Cn1cc2ccc(-c3ccc(CN4Cc5ncccc5C4=O)c(F)c3)cc2n1 [Example B35] ?
*A* 5.71

*Q* Quick check: pEC50 of Cn1cc2c(-c3cc(F)c(CN4Cc5ncccc5C4=O)cc3F)cccc2n1 [Example B87] ?
*A* 5.22

*Q* Quick check: pEC50 of Cn1cc2cc(-c3cc(F)c(CN4Cc5ncccc5C4=O)c(F)c3)ccc2n1 [Example B51] ?
*A* 6.59

*Q* Quick check: pEC50 of Cn1cnc2ccc(-c3cc(F)c(CN4Cc5ncccc5C4=O)c(F)c3)cc21 [Example B82] ?
*A* 6.40

----------
target: UniProt P11229; assay: mAChR M1 cell-based functional assay (calcium mobilization, potentiation of EC20 acetylcholine response); details: positive allosteric modulation of EC20 ACh response, mAChR M1 CHO-K1 cells; >10 μM estimated where no plateau; read-out: EC50
Property Measured: pEC50
In plain terms, pEC50 is the concentration in mol/L turned into minus its base-10 logarithm.

*Q* Quick check: pEC50 of O=C1c2cccnc2CN1Cc1c(F)cc(-c2ccc3cnccc3c2)cc1F ?
*A* 6.23

*Q* Quick check: pEC50 of Cn1cc2c(-c3cccc(CN4Cc5ncccc5C4=O)c3F)cccc2n1 ?
*A* 5.14

*Q* Quick check: pEC50 of O=C1c2cccnc2CN1Cc1ccc(-c2cccnc2)cc1F ?
*A* 5.22

*Q* Quick check: pEC50 of O=C1Cc2cc(-c3cc(F)c(CN4Cc5ncccc5C4=O)c(F)c3)ccc2N1 ?
*A* 6.51

*Q* Quick check: pEC50 of O=C1c2ncccc2CN1Cc1ccc(-c2ccc3ccncc3c2)cc1F ?
*A* 5.68

*Q* Quick check: pEC50 of O=C1c2cccnc2CN1Cc1ccc(-c2ccc3cnccc3c2)cc1F ?
*A* 6.04

*Q* Quick check: pEC50 of O=C1c2cccnc2CN1Cc1ccc(-c2cnc3ccccn23)cc1F ?
*A* 5.53

*Q* Quick check: pEC50 of Cn1cc2ccc(-c3ccc(CN4Cc5cccnc5C4=O)c(F)c3)cc2n1 ?
*A* 5.70

*Q* Quick check: pEC50 of Cn1cc(-c2ccc(CN3Cc4cc(F)cc(F)c4C3=O)c(F)c2)cn1 ?
*A* 5.59

*Q* Quick check: pEC50 of O=C1c2cccnc2CN1Cc1ccc(-c2ccnc3ccccc23)cc1F ?
*A* 5.43

*Q* Quick check: pEC50 of Cn1cc2cc(-c3cc(F)c(CN4Cc5ncccc5C4=O)cc3F)ccc2n1 ?
*A* 6.39

*Q* Quick check: pEC50 of O=C1c2ncccc2CN1Cc1ccc(-c2cccnc2)cc1Cl ?
*A* 5.28

----------
target: UniProtKB P11229; assay: mAChR M1 cell-based functional assay (calcium mobilization, potentiation of EC20 acetylcholine response); conditions: positive allosteric modulation of EC20 ACh response, mAChR M1 CHO-K1 cells; >10 μM estimated where no plateau; read-out: EC50
pEC50: −log10 of the molar value.
Label yes for high-side pEC50 (at or above 6) and no for low-side pEC50 (below it).

*Q* Identify whether the reported pEC50 of the following compound is 6 or greater: COc1cncc(-c2ccc(CN3Cc4ncccc4C3=O)c(F)c2)c1 [Example B43]
*A* no

*Q* Identify whether the reported pEC50 of the following compound is 6 or greater: Cn1ncc2c(-c3ccc(CN4Cc5ncccc5C4=O)c(F)c3)cccc21 [Example B29]
*A* no

*Q* Identify whether the reported pEC50 of the following compound is 6 or greater: CC1c2ccccc2C(=O)N1Cc1ccc(-c2cnn(C)c2)cc1F (stereo not drawn) [Example B113]
*A* no

*Q* Identify whether the reported pEC50 of the following compound is 6 or greater: CSc1ncc(-c2ccc(CN3Cc4ccccc4C3=O)c(F)c2)cn1 [Example B122]
*A* no

*Q* Identify whether the reported pEC50 of the following compound is 6 or greater: Cc1cc(-c2ccc(CN3Cc4cccnc4C3=O)c(F)c2)cnc1Cl [Example B63]
*A* no

*Q* Identify whether the reported pEC50 of the following compound is 6 or greater: Cc1cc(-c2cnc(Cl)c(C)c2)ccc1CN1Cc2cccnc2C1=O [Example B83]
*A* no

*Q* Identify whether the reported pEC50 of the following compound is 6 or greater: Cn1cc2c(-c3ccc(F)c(CN4Cc5ncccc5C4=O)c3)cccc2n1 [Example B110]
*A* no

*Q* Identify whether the reported pEC50 of the following compound is 6 or greater: Cc1n[nH]c2ccc(-c3cc(F)c(CN4Cc5ncccc5C4=O)c(F)c3)cc12 [Example B102]
*A* yes

*Q* Identify whether the reported pEC50 of the following compound is 6 or greater: Cn1cc2ccc(-c3ccc(F)c(CN4Cc5ncccc5C4=O)c3)cc2n1 [Example B108]
*A* no

*Q* Identify whether the reported pEC50 of the following compound is 6 or greater: O=C1c2cccnc2CN1Cc1c(F)cc(-c2ccc3ncccc3c2)cc1F [Example B96]
*A* yes

*Q* Identify whether the reported pEC50 of the following compound is 6 or greater: Cc1nnc(-c2ccc(CN3Cc4ccccc4S3(=O)=O)cc2)o1 [Example B123]
*A* no

*Q* Identify whether the reported pEC50 of the following compound is 6 or greater: Cn1cc(-c2ccc(CN3Cc4ccccc4C3=O)c(C(F)(F)F)c2)cn1 [Example B12]
*A* no

*Q* Identify whether the reported pEC50 of the following compound is 6 or greater: O=C1c2cccnc2CN1Cc1ccc(-c2ccc3nccn3c2)cc1F [Example B57]
*A* no

*Q* Identify whether the reported pEC50 of the following compound is 6 or greater: Cn1ncc2cc(-c3ccc(CN4Cc5ccccc5C4=O)c(F)c3)ccc21 [Example B114]
*A* no

*Q* Identify whether the reported pEC50 of the following compound is 6 or greater: Cn1cc(-c2ccc(CN3Cc4ncccc4C3=O)c(F)c2)cn1 [Example B9]
*A* no

*Q* Identify whether the reported pEC50 of the following compound is 6 or greater: Cc1n[nH]c2cc(-c3cc(F)c(CN4Cc5ncccc5C4=O)c(F)c3)ccc12 [Example B98]
*A* yes

----------
target: UniProt P11229; test: mAChR M1 cell-based functional assay (calcium mobilization, potentiation of EC20 acetylcholine response); conditions: % ACh maximum at 30 μM; mAChR M1-expressing CHO-K1 cells, calcium flux
Property Measured: Emax (%)

*Q* Quick check: Emax (%) of O=C1c2cccnc2CN1Cc1ccc(-c2ccc3nccn3c2)cc1F ?
*A* 69%

*Q* Quick check: Emax (%) of O=C1Cc2cc(-c3ccc(CN4Cc5ncccc5C4=O)c(F)c3)ccc2N1 ?
*A* 58%

*Q* Quick check: Emax (%) of O=S1(=O)c2ccccc2CN1Cc1ccc(-n2cccn2)cc1 ?
*A* <30%

*Q* Quick check: Emax (%) of Cn1cc2c(-c3cccc(CN4Cc5ncccc5C4=O)c3F)cccc2n1 ?
*A* 36%

*Q* Quick check: Emax (%) of O=C1c2cccnc2CN1Cc1ccc(-c2ccnc3ccccc23)cc1F ?
*A* 44%

*Q* Quick check: Emax (%) of Cn1cc2cc(-c3ccc(CN4Cc5ccccc5S4(=O)=O)c(F)c3)ccc2n1 ?
*A* 34%

*Q* Quick check: Emax (%) of O=C1c2cccnc2CN1Cc1ccc(-c2cccc3cccnc23)cc1F ?
*A* 26%

*Q* Quick check: Emax (%) of Cn1cc(-c2cnc(CN3Cc4ncccc4C3=O)c(F)c2)cn1 ?
*A* 40%

*Q* Quick check: Emax (%) of Cc1nnc(-c2ccc(CN3Cc4ccccc4S3(=O)=O)cc2)o1 ?
*A* <30%

*Q* Quick check: Emax (%) of Cn1ncc2c(-c3ccc(CN4Cc5ncccc5C4=O)c(F)c3)cccc21 ?
*A* 58%

*Q* Quick check: Emax (%) of Cn1ncc2cc(-c3ccc(CN4Cc5ccccc5C4=O)c(F)c3)ccc21 ?
*A* <30%

*Q* Quick check: Emax (%) of Cc1cc(-c2cnc(Cl)c(C)c2)ccc1CN1Cc2cccnc2C1=O ?
*A* 34%

*Q* Quick check: Emax (%) of CN1CCc2cc(-c3ccc(CN4Cc5ncccc5C4=O)c(F)c3)ccc21 ?
*A* 60%

*Q* Quick check: Emax (%) of O=C1c2cccnc2CN1Cc1ccc(-c2ccc3ccncc3c2)cc1F ?
*A* 68%

*Q* Quick check: Emax (%) of Cn1cc(-c2ccc(CN3Cc4ccccc4S3(=O)=O)c(F)c2)cn1 ?
*A* 63%

*Q* Quick check: Emax (%) of Cn1cc2ccc(-c3ccc(CN4Cc5cccnc5C4=O)c(F)c3)cc2n1 ?
*A* 79%

*Q* Quick check: Emax (%) of COc1ccc(-c2ccc(CN3Cc4cccnc4C3=O)c(Cl)c2)cc1 ?
*A* 35%

*Q* Quick check: Emax (%) of Cn1nccc1-c1ccc(CN2Cc3ccccc3C2=O)c(F)c1 ?
*A* 40%

*Q* Quick check: Emax (%) of O=S1(=O)c2ccccc2CN1Cc1ccc(-n2cccc2)cc1 ?
*A* <30%

*Q* Quick check: Emax (%) of CN(C)c1ccc(-c2ccc(CN3Cc4cccnc4C3=O)c(F)c2)cn1 ?
*A* 48%

*Q* Quick check: Emax (%) of O=C1c2cccnc2CN1Cc1ccc(-c2ccc3[nH]ncc3c2)cc1F ?
*A* 58%

*Q* Quick check: Emax (%) of O=C1c2ccccc2CN1Cc1ccc(-c2ccncc2)cc1F ?
*A* 71%

*Q* Quick check: Emax (%) of Cn1ncc2cc(-c3ccc(CN4Cc5ncccc5C4=O)c(F)c3)ccc21 ?
*A* 58%

*Q* Quick check: Emax (%) of Cn1cc(-c2ccc(CN3Cc4ccccc4C3=O)c(C(F)(F)F)c2)cn1 ?
*A* 36%

*Q* Quick check: Emax (%) of COc1cc(-c2cccc3nn(C)cc23)ccc1CN1Cc2ncccc2C1=O ?
*A* 70%

*Q* Quick check: Emax (%) of Cn1cc(-c2cnc(CN3Cc4cccnc4C3=O)c(F)c2)cn1 ?
*A* 43%

*Q* Quick check: Emax (%) of O=C1c2ncccc2CN1Cc1ccc(-c2cccc3ncccc23)cc1F ?
*A* 42%

*Q* Quick check: Emax (%) of CN(C)c1ccc(-c2ccc(CN3Cc4ncccc4C3=O)c(F)c2)cc1 ?
*A* 53%

*Q* Quick check: Emax (%) of O=C1c2ccccc2CN1Cc1ccc(-c2ccc3cc[nH]c3c2)cc1F ?
*A* <30%

*Q* Quick check: Emax (%) of O=C1c2ncccc2CN1Cc1ccc(-c2ccc3cnccc3c2)cc1Cl ?
*A* 52%

*Q* Quick check: Emax (%) of O=C1c2cccnc2CN1Cc1c(F)cc(-c2cccc3ncccc23)cc1F ?
*A* 53%

*Q* Quick check: Emax (%) of Cc1cc(-c2ccc(CN3Cc4cccnc4C3=O)c(F)c2)cnc1Cl ?
*A* 48%

*Q* Quick check: Emax (%) of Cn1cnc2ccc(-c3cc(F)c(CN4Cc5ncccc5C4=O)c(F)c3)cc21 ?
*A* 72%

*Q* Quick check: Emax (%) of Cn1cc(-c2ccc(CN3Cc4ccccc4C3=O)cn2)cn1 ?
*A* 40%

*Q* Quick check: Emax (%) of CC1c2ccccc2C(=O)N1Cc1ccc(-c2cnn(C)c2)cc1F (stereo not shown) ?
*A* <30%

*Q* Quick check: Emax (%) of CN1Cc2ccc(-c3cc(F)c(CN4Cc5ncccc5C4=O)c(F)c3)cc2C1 ?
*A* 56%

*Q* Quick check: Emax (%) of Cn1ncc2cc(-c3ccc(CN4Cc5cccnc5C4=O)c(F)c3)ccc21 ?
*A* 38%
